Data origin: the supplement of paper PMC10567573

B1: PDS5B (parent)
chain: IYKKYALQSAAGKDAAKQIAWIKD

Variants of: B1
Assay: protein stability index of a GFP-peptide fusion (GPS, HEK-293T) (PSI 1-6); higher = more stable;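 also: lentivirally expressed fusions sorted by FACS into six bins by GFP to DsRed ratio, PSI derived from sequencing read proportions per bin multiplied by bin number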
Settings: c terminus: a fixed tail appended
Rule: criterion met for protein stability index not less than 2, criterion not met for anything less.

Answered cases to consult:
IYSKYALQSAAGKDAAKQIAWIKD
criterion met
IYKKYALQSAAGKDAAKQLAWIKD
criterion not met
IYKKYALQSAAGKDEAKQIAWIKD
criterion met
IYKKYALQSAAGDDAAKQIAWIKD
criterion met
IYKKYALQSAANKDAAKQIAWIKD
criterion met
IYKKYAAQSAAGKDAAKQIAWIKD
criterion met
IYKKYALQSAAGKDAKKQIAWIKD
criterion met
IYKKYALQSAAGKDAAEQIAWIKD
criterion met
IYKKYALQSAAYKDAAKQIAWIKD
criterion not met
IYKKYALQSAVGKDAAKQIAWIKD
criterion met

Request: Check this variant for protein stability index at or above 2: IYKKYLLQSAAGKDAAKQIAWIKD
Result: criterion not met

Request: Exam item: decide whether the reported protein stability index for IYFKYALQSAAGKDAAKQIAWIKD is at least 2.
Result: criterion met

Request: Is reported protein stability index greater than or equal to 2 here: IYKKYALQSAAGKDNAKQIAWIKD
Result: criterion met

Request: Quick check: does IYKKYALWSAAGKDAAKQIAWIKD have protein stability index greater than or equal to 2?
Result: criterion not met

Request: Determine whether measured protein stability index meets or exceeds 2 for IYKKYALQSAAGKDAAAQIAWIKD
Result: criterion met

Request: Check this variant for protein stability index at or above 2: IYKKYALQSAAGKDAAKQIAWIDD
Result: criterion met

Request: Form field: protein stability index at least 2? Entry: IYKKYALQSAAGKDTAKQIAWIKD
Result: criterion met

Request: Confirm if protein stability index reported for the variant IYKKYALQKAAGKDAAKQIAWIKD is 2 or above.
Result: criterion not met
